pIC50: −log10 of the molar value.
Quick record of pIC50 values for Polyunsaturated fatty acid 5-lipoxygenase (Rattus norvegicus).
resultType: pIC50

CC(C)(C)c1cc(/C=C2\OC(=S)NC2=O)cc(C(C)(C)C)c1O ... 6.08
C/C(=C1/SC(=S)NC1=O)c1cc(C(C)(C)C)c(O)c(C(C)(C)C)c1 ... 5.64
CC(C)(C)c1cc(/C=C2\SC(N=C(N)N)=NC2=O)cc(C(C)(C)C)c1O ... 6.04

a = CC(C)(C)c1cc(/C=C2\SC(=O)NC2=O)cc(C(C)(C)C)c1
b = CC(C)(C)c1cc(/C=C2\CC(=S)NC2=O)cc(C(C)(C)C)c1O
INPUT: Higher pIC50 between a and b ? Mark your selection by writing its label.
OUTPUT: b
(b: 5.77, a: 5.48)

---

test system: Rattus norvegicus; assay: 40% inhibition of induced edema in the rat mycobacterium foot-pad edema test; type: functional
This listing pairs compounds with measured ID40.
The response must be a number in mg/kg with no trailing unit.

Check out these entries, answers already filled in.
CC(C)(C)c1cc(/C=C2\OC(=O)NC2=O)cc(C(C)(C)C)c1O ... 3.7
CC(C)(C)c1cc(/C=C2\CCOC2=O)cc(C(C)(C)C)c1O ... 3.7

INPUT: Recorded ID40 for CC(C)(C)c1cc(/C=C2\SC(=O)NC2=O)cc(C(C)(C)C)c1O , please?
OUTPUT: 2

INPUT: Looking for the measured ID40 of CC(C)(C)c1cc(/C=C2\OC(=S)NC2=O)cc(C(C)(C)C)c1O , can you help?
OUTPUT: 12.4

INPUT: Could you tell me which ID40 is on file for CN(O)C1=NC(=O)/C(=C/c2cc(C(C)(C)C)c(O)c(C(C)(C)C)c2)S1.Cl ?
OUTPUT: 6.2

INPUT: Give its ID40 value. Item: CON1CC/C(=C\c2cc(C(C)(C)C)c(O)c(C(C)(C)C)c2)C1=O
OUTPUT: 1.9

INPUT: Need ID40, item CC(C)(C)c1cc(/C=C2\OC(N=C(N)N)=NC2=O)cc(C(C)(C)C)c1O.CS(=O)(=O)O
OUTPUT: 5.7

INPUT: // returns reported ID40 for input CC(C)(C)c1cc(/C=C2\SC(=N)NC2=O)cc(C(C)(C)C)c1O.CS(=O)(=O)O [DARBUFELONE MESYLATE]
OUTPUT: 0.6

INPUT: Need ID40, item CC(C)(C)c1cc(/C=C2\SC(N=C(N)N)=NC2=O)cc(C(C)(C)C)c1O
OUTPUT: 2.2

INPUT: Bench note: what ID40 did Cc1ccc(Cl)c(Nc2ccccc2C(=O)[O-])c1Cl.O.[Na+] [MECLOFENAMATE SODIUM] show?
OUTPUT: 0.4

---

biological target: Cyclooxygenase (Rattus norvegicus, UniProt P35355+Q63921); conditions: rbl-1
Description: Inhibition of prostaglandin G/H synthase in intact rat basophilic leukemia cells stimulated with the calcium ionophore A-23187
resultType: IC50 (µM)

CN1C(NC#N)=NC(=O)/C1=C/c1cc(C(C)(C)C)c(O)c(C(C)(C)C)c1 ... 3.5

A = CC(C)(C)c1cc(/C=C2\SC(N=C(N)N)=NC2=O)cc(C(C)(C)C)c1O
B = C/C(=C1/SC(=S)NC1=O)c1cc(C(C)(C)C)c(O)c(C(C)(C)C)c1
INPUT: For the pair A and B , which member has the lower IC50 number? Please respond with the label that marks your chosen entry.
OUTPUT: A
(A: 0.083 µM, B: 4.5 µM)

---

target: Cyclooxygenase (Rattus norvegicus, UniProt P35355+Q63921); conditions: rbl-1
resultType: IC50 (µM)

CC(C)(C)c1cc(/C=C2\OC(=S)NC2=O)cc(C(C)(C)C)c1O ... 1.7
CC(C)(C)c1cc(/C=C2\SC(=S)NC2=O)cc(C(C)(C)C)c1O ... 0.012
CC(C)(C)c1cc(/C=C2\OC(=O)NC2=O)cc(C(C)(C)C)c1O ... 0.65
CN1C(NC(=N)N)=NC(=O)/C1=C/c1cc(C(C)(C)C)c(O)c(C(C)(C)C)c1 ... 2.1
CSC1=NC(=O)/C(=C/c2cc(C(C)(C)C)c(O)c(C(C)(C)C)c2)S1 ... 0.6
CN1C(=S)NC(=O)/C1=C/c1cc(C(C)(C)C)c(O)c(C(C)(C)C)c1 ... 0.79
CC(C)(C)c1cc(/C=C2\SC(=O)NC2=O)cc(C(C)(C)C)c1 ... 4.6
CC(C)(C)c1cc(/C=C2\SC(NO)=NC2=O)cc(C(C)(C)C)c1O ... 0.8
C/C(=C1/SC(NC#N)=NC1=O)c1cc(C(C)(C)C)c(O)c(C(C)(C)C)c1 ... 5.1
CC(C)(C)c1cc(/C=C2\SC(NC#N)=NC2=O)cc(C(C)(C)C)c1O ... 0.16

1 = CN(O)C1=NC(=O)/C(=C/c2cc(C(C)(C)C)c(O)c(C(C)(C)C)c2)S1
2 = C/C(=C1/SC(N=C(N)N)=NC1=O)c1cc(C(C)(C)C)c(O)c(C(C)(C)C)c1
INPUT: Would you kindly point out which of 1 and 2 has the smaller IC50 figure? Please respond with the label that marks your chosen entry.
OUTPUT: 2

1 = CN1C(=O)NC(=O)/C1=C/c1cc(C(C)(C)C)c(O)c(C(C)(C)C)c1
2 = CN(O)C1=NC(=O)/C(=C/c2cc(C(C)(C)C)c(O)c(C(C)(C)C)c2)S1.Cl
3 = CC(C)c1cc(/C=C2\SC(=O)NC2=O)cc(C(C)C)c1O
4 = CC(C)(C)c1cc(/C=C2\CC(=S)NC2=O)cc(C(C)(C)C)c1O
5 = O=C1NC(=O)/C(=C/c2cc(-c3ccccc3)c(O)c(-c3ccccc3)c2)S1
INPUT: Sort by IC50, descending. Write the labels, ordered according to the request.
OUTPUT: 5, 1, 4, 3, 2
(5: 9.6 µM, 1: 4.6 µM, 4: 2.4 µM, 3: 0.82 µM, 2: 0.33 µM)

1 = CC(C)(C)c1cc(/C=C2\OC(NC#N)=NC2=O)cc(C(C)(C)C)c1O
2 = CC(C)(C)c1cc(/C=C2\SC(=O)NC2=O)cc(C(C)(C)C)c1O
INPUT: Hi! Which is lower in terms of IC50, the first one 1 or the second one 2 ? Use the label to indicate which entry you chose.
OUTPUT: 2
(2: 0.35 µM, 1: 1.1 µM)

---

test system: Rattus norvegicus; experiment: Inhibition of rat carrageenan induced foot-pad edema at a dose of 30 mg/kg on peroral administration; settings: po, read-out: Inhibition
resultType: inhibition in vivo at 30 mg/kg (%)
Respond numerically; units are % and should not be typed.

CC(C)(C)c1cc(/C=C2\SC(=O)NC2=O)cc(C(C)(C)C)c1O ... 59
CC(C)(C)c1cc(/C=C2\CCOC2=O)cc(C(C)(C)C)c1O ... 28
CC(C)(C)c1cc(/C=C2\OC(N=C(N)N)=NC2=O)cc(C(C)(C)C)c1O.CS(=O)(=O)O ... 48
CC(C)(C)c1cc(/C=C2\SC(NC#N)=NC2=O)cc(C(C)(C)C)c1O ... 49
CC(C)(C)c1cc(/C=C2\SC(=N)NC2=O)cc(C(C)(C)C)c1O.CS(=O)(=O)O [DARBUFELONE MESYLATE] ... 61

INPUT: # inhibition in vivo at 30 mg/kg lookup, item O=C1NC(=O)/C(=C/c2cc(-c3ccccc3)c(O)c(-c3ccccc3)c2)S1
OUTPUT: 41

INPUT: Can you look up the measured inhibition in vivo at 30 mg/kg of CC(C)(C)c1cc(/C=C2\OC(=S)NC2=O)cc(C(C)(C)C)c1O for me?
OUTPUT: 40

INPUT: Reported inhibition in vivo at 30 mg/kg for CC(C)(C)c1cc(/C=C2\OC(=O)NC2=O)cc(C(C)(C)C)c1O : what is it?
OUTPUT: 51

INPUT: Recorded inhibition in vivo at 30 mg/kg of CSC1=NC(=O)/C(=C/c2cc(C(C)(C)C)c(O)c(C(C)(C)C)c2)S1 , please.
OUTPUT: 47

---

Entries with their measured IC50, system Polyunsaturated fatty acid 5-lipoxygenase (Rattus norvegicus, UniProt P12527):
resultType: IC50 (nM)

P = CN1C(=S)NC(=O)/C1=C/c1cc(C(C)(C)C)c(O)c(C(C)(C)C)c1
Q = CC(C)(C)c1cc(/C=C2\OC(=O)NC2=O)cc(C(C)(C)C)c1O
INPUT: Could you tell me which of P and Q has the lower IC50 reading? Please identify the chosen entry by its label.
OUTPUT: P

1 = CN1C(=O)NC(=O)/C1=C/c1cc(C(C)(C)C)c(O)c(C(C)(C)C)c1
2 = CC(C)(C)c1cc(/C=C2\OC(NC#N)=NC2=O)cc(C(C)(C)C)c1O
3 = O=C1NC(=O)/C(=C/c2cc(-c3ccccc3)c(O)c(-c3ccccc3)c2)S1
INPUT: Order the records so the highest IC50 appears first and the lowest last. Response field: labels, in requested order.
OUTPUT: 2, 1, 3
